Cited source: ChEMBL document CHEMBL1147802

Experiment: Oral bioavailability in rat at 10 mg/kg, po
Assay type: ADME, organism-based
Conditions: in vivo
result-type: bioavailability

O=C(CC1CCN(C(=O)c2cccc(C#Cc3ccccn3)c2)CC1)Nc1ccc(O)cc1 ... < 2%

---

Assay: Oral bioavailability in rat at 40 mg/kg, po
Type: ADME, organism-based
Details: in vivo
result-type: bioavailability (%)

O=C(CC1CCN(C(=O)c2cccc(C#Cc3ccccn3)c2)CC1)Nc1ccccc1 ... 65

---

Target: Substance-P receptor (Homo sapiens)
Sequence (P25103 whole entry): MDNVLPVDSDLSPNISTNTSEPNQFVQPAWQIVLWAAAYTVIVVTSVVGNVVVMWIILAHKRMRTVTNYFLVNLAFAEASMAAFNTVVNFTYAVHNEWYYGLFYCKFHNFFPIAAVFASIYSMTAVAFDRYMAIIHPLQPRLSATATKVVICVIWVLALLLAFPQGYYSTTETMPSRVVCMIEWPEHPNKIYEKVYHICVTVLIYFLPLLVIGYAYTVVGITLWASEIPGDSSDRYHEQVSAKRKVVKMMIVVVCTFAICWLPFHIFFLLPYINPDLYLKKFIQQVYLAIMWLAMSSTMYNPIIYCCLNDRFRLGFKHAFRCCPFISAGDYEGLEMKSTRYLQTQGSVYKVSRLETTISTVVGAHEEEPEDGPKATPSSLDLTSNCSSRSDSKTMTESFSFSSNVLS
Experiment: Inhibition of human NK1 receptor expressed in U373MG cells at 10 uM
Assay type: cell-based
Conditions: U-373MG ATCC
Quick reference for inhibition among some compounds
result-type: inhibition

O=C(CC1CCN(C(=O)c2cccc(C#Cc3ccccn3)c2)CC1)Nc1ccccc1F ... 96%
O=C(CC1CCN(C(=O)c2cccc(C#Cc3ccccn3)c2)CC1)Nc1ccc(O)cc1 ... 18%
O=C(CC1CCN(C(=O)c2cccc(C#Cc3ccccn3)c2)CC1)Nc1ccc(F)cc1F ... 16%
O=C(CC1CCN(C(=O)c2cccc(C#Cc3ccccn3)c2)CC1)Nc1ccc(F)cc1 ... 96%
O=C(CC1CCN(C(=O)c2cccc(C#Cc3ccccn3)c2)CC1)Nc1ccccc1 ... 37%
O=C(CC1CCN(C(=O)c2cccc(C#Cc3ccccc3)c2)CC1)Nc1ccccc1 ... 28%

---

Test: Oral bioavailability in rat at 3 mg/kg, po
Format: ADME, organism-based
Conditions: in vivo
result-type: bioavailability

O=C(CC1CCN(C(=O)c2cccc(C#Cc3ccccn3)c2)CC1)Nc1ccc(O)cc1 ... < 2%

---

Experiment: Half life in rat at 40 mg/kg, po
Type: ADME, organism-based
Design: dose 40 mg/kg, route oral
Details: in vivo
result-type: half-life (h)

O=C(CC1CCN(C(=O)c2cccc(C#Cc3ccccn3)c2)CC1)Nc1ccccc1 ... 3.1

---

Target: Substance-K receptor (Homo sapiens, UniProt P21452)
Sequence (P21452 whole entry): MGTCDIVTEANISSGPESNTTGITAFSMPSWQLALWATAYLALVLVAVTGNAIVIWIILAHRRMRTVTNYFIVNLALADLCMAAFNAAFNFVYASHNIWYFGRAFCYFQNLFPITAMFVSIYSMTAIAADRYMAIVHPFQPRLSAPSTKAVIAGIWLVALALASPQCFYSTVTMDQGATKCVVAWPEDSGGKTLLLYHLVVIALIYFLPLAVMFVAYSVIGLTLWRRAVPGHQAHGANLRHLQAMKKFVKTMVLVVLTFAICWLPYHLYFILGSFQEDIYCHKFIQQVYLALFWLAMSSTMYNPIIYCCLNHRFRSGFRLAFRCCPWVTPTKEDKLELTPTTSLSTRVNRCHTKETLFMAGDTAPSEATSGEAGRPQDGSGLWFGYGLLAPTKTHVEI
Assay: Inhibition of human NK2 receptor expressed in CHO cells
pIC50: −log10 of the molar value.
result-type: pIC50

O=C(CC1CCN(C(=O)c2cccc(C#Cc3ccccn3)c2)CC1)Nc1ccccc1F ... 6.26
O=C(CC1CCN(C(=O)c2cccc(C#Cc3ccccn3)c2)CC1)Nc1ccc(F)cc1 ... 6.00

---

Experiment: Stability in rat liver microsomes after 90 min
Assay type: ADME, Microsome
Settings: read-out: Stability
result-type: remaining at 1.5 h (%)

O=C(CC1CCN(C(=O)c2cccc(C#Cc3ccccn3)c2)CC1)Nc1ccc(O)cc1 ... 97
O=C(CC1CCN(C(=O)c2cccc(C#Cc3ccccn3)c2)CC1)Nc1ccccc1 ... 63

---

Molecular target: Substance-P receptor (Homo sapiens)
Assay: Inhibition of human NK1 receptor expressed in U373MG cells
Quick reference for IC50 among some molecules
result-type: IC50

O=C(CC1CCN(C(=O)c2cccc(C#Cc3ccccn3)c2)CC1)Nc1ccc(F)cc1 ... 1000 nM
O=C(CC1CCN(C(=O)c2cccc(C#Cc3ccccn3)c2)CC1)Nc1ccccc1F ... 640 nM

---

Molecular target: Substance-K receptor (Homo sapiens) (UniProt P21452)
Assay: Inhibition of human NK2 receptor expressed in CHO cells at 10 uM
Assay type: cell-based
Everything with inhibition lower than 10% is 0 (no); everything else, including exactly 10%, is 1 (yes).

O=C(CC1CCN(C(=O)c2cccc(C#Cc3ccccn3)c2)CC1)Nc1ccc(F)cc1 ... 1 (yes)
O=C(CC1CCN(C(=O)c2cccc(C#Cc3ccccn3)c2)CC1)Nc1ccccc1 ... 1 (yes)
O=C(CC1CCN(C(=O)c2cccc(C#Cc3ccccn3)c2)CC1)Nc1ccc(F)cc1F ... 0 (no)
O=C(CC1CCN(C(=O)c2cccc(C#Cc3ccccc3)c2)CC1)Nc1ccccc1 ... 0 (no)
O=C(CC1CCN(C(=O)c2cccc(C#Cc3ccccn3)c2)CC1)Nc1ccccc1F ... 1 (yes)

---

Test: Stability in human liver microsomes after 90 min
Format: ADME, Microsome
Details: read-out: Stability
result-type: remaining at 1.5 h (%)

O=C(CC1CCN(C(=O)c2cccc(C#Cc3ccccn3)c2)CC1)Nc1ccc(O)cc1 ... 80
O=C(CC1CCN(C(=O)c2cccc(C#Cc3ccccn3)c2)CC1)Nc1ccccc1 ... 35

---

Experiment: Half life in cynomolgus monkey
Type: ADME, organism-based, Macaca fascicularis
Conditions: in vivo
result-type: half-life (h)

O=C(CC1CCN(C(=O)c2cccc(C#Cc3ccccn3)c2)CC1)Nc1ccc(F)cc1F ... 3.1

---

Test: Half life in rat at 15 mg/kg, po
Type: ADME, organism-based
Design: dose 15 mg/kg, route oral
Conditions: in vivo
result-type: half-life (h)

O=C(CC1CCN(C(=O)c2cccc(C#Cc3ccccn3)c2)CC1)Nc1ccc(F)cc1F ... 2.7

---

Experiment: Oral bioavailability in rat at 15 mg/kg, po
Assay type: ADME, organism-based
Conditions: in vivo
result-type: bioavailability (%)

O=C(CC1CCN(C(=O)c2cccc(C#Cc3ccccn3)c2)CC1)Nc1ccc(F)cc1F ... 7
